Listed next: entries and their corresponding melting point.

compound=O=C(O)CCNC(=O)c1ccco1 reported="135 to 139 °C"
compound=Nc1cc(F)c(N2CCCCC2)c(F)c1 reported="70 to 72 °C"
compound=CCOc1cc(C=CC(=O)O)ccc1OCC(C)C reported="72 to 74 °C"
compound=CNS(=O)(=O)c1ccc(I)cc1 reported="94 to 96 °C"
compound=N#CCCSc1ccccc1N reported="45 to 47 °C"

# input for lookup
Consider the compound `O=c1[nH]c(Cl)nc2c1cnn2-c1ccccc1` and give its recorded melting point.
276 to 278 °C

###

Entries and their melting point

compound=COc1ccccc1SCC(=O)O reported="99 to 101 °C"

Specify reported melting point for the compound shown: `O=C(O)c1ccc(Cl)c(S(=O)(=O)Nc2ccc(Br)cc2)c1`
225 to 227 °C

Please give the documented melting point of `O=C1COc2ccc(Br)cc2N1CCCl`
117 to 119 °C

Consider the compound `Nc1ccc(Cl)c(C(=O)NCc2cccs2)c1` . State its measured melting point.
69 to 71 °C

Report measured melting point; entry is `CN(C)c1cc(C(F)(F)F)nc(Cl)n1`
106 to 108 °C

# return recorded melting point for entry `CC(C)CCNC(=O)C1CCN(C(=O)CCl)CC1`
119 to 121 °C

###

value type: melting point

Please report melting point for the following molecule: `CCc1c(C)[nH]c2ccc(Oc3ccccc3)cc2c1=O`
266 to 268 °C

State its melting point for this molecule: `CCn1c(C)nc2cc(S(=O)(=O)C(F)F)ccc21`
161 to 163 °C

###

value type: melting point

Consider the compound `O=S(=O)(Cl)c1ccc(S(F)(F)(F)(F)F)cc1` . State its measured melting point.
82 to 84 °C

###

value type: melting point

compound=Sc1ccc(Sc2ccc(S)cc2)cc1 value_type="melting point" reported="112 to 114 °C"
compound=Cn1cc(Br)cc1C(=O)NN value_type="melting point" reported="169 to 171 °C"

Tell me melting point reported for `Cc1ccc(S(=O)(=O)N(C)C)cc1C(=O)O`
173 to 175 °C

Identify measured melting point corresponding to `CCOC(=O)c1cc2cc(N)ccc2s1`
89 to 91 °C

###

Listing: melting point of selected compounds

Some solved entries appear below for comparison.
compound="CNC(c1ccc(Cl)cc1)c1ncccn1 (stereo not given)" reported="67 to 69 °C"
compound=Cn1c(SCC(=O)O)nnc1-c1cccs1 reported="205 to 207 °C"
compound=CC1CCN(Cc2ccc(N)cc2)CC1 reported="61 to 63 °C"

Annotate the compound `O=C(O)C1(Cc2nc3ccccc3[nH]2)CCCC1` with its measured melting point.
255 to 257 °C

###

value type: melting point

Solved entries (count: 2):
compound=O=C(O)CCCOc1ccc(F)cc1F reported="74 to 76 °C"
compound="O=C(CCl)NC1CCOc2ccccc21 (stereo not drawn)" reported="86 to 88 °C"

Report measured melting point; entry is COc1ccc(C(CN)c2c[nH]c3ccccc23)cc1 (stereo not drawn)
127 to 129 °C

Kindly indicate its recorded melting point. Item: `Cc1cc(C(=O)O)cc(S(=O)(=O)Cl)c1C`
171 to 173 °C

Look up melting point of CC(CC(=O)O)C(=O)c1cccc(F)c1 (stereo not drawn) and report it.
59 to 61 °C

Look up melting point of `O=C(O)c1nn(-c2ccccc2I)cc1O` and report it.
198 to 200 °C

Indicate the recorded melting point value for this compound: `COc1ccc2c(c1)c(C(=O)O)c(C)n2Cc1ccccc1`
209 to 211 °C

Quickly give me recorded melting point for `CCCn1cnc2c1c(=O)[nH]c(=O)n2C`
256 to 258 °C

Return the recorded melting point value; entry: `CC(C)(C)OC(=O)NCCC(=O)NC(N)=O`
162 to 164 °C

Please indicate melting point recorded for `Cc1n[nH]c(C(=O)O)c1C`
288 to 290 °C
